test: folding stability dG unfold from trypsin proteolysis; higher = more stable
Entries are sorted into classes by folding stability dG unfold as follows: A = under 0.9 kcal/mol, B = from 0.9 kcal/mol up to 2 kcal/mol, C = 2 kcal/mol and over

residuestring="SAGGSAGGSAGGMKITKVEVFERPDGYLVVKMEIELTNENGEKVKLELVFVFKPGEVIESAGGSAGGSAGGS [r10_1183_TrROS_Hall]" classlabel=C
residuestring="SAGGSAGGSAMDAEEIADMIKEILRKQFPNVKITEITVERRPPGNYYVEARVPDGNQRTIPISAGGSAGGSA [r18_423_TrROS]" classlabel=A
residuestring="SAGGKLPKLPPGQIEIMDFQIEPDPDGRYKMSFMITITAPDNGKKVVVMLEMWMPPDGEMKTGIGIMPSAGG [r13_263_TrROS]" classlabel=B
residuestring="SKKVKPIATIDVEGMSLEELLAAIKAALPPGEKAIVRIVNADGEVRTIEIDAKTGEIKSLPPGARIYIYPSA [r9_853_TrROS_Hall]" classlabel=C
residuestring="SAGSKTITLEFNFEELKVKVTVTYDPEGEPTVTVTTTIYAKGGEKLETKTTTVTASPDDPVVKAFLESSSAG [r5_964_JUSTAS]" classlabel=C
residuestring="SAAPDEVVTLEFTVPVVTTFEPGAPYVAPARLTVTFHPPDRVEIRLVSPDGRLVATRTVPPSVLLSEVISAG [r14_559_TrMRF]" classlabel=B
residuestring="SAGGSAGGMKITKIESVEPNPENGMVSLEMKIENGASILIHYNPDNGKVTIMVFKPNEIEPIELSAGGSAGG [r6_796_TrROS]" classlabel=B
residuestring="SAGGSAGGSAGGMTPIEVTVELEEPTRRTTRRFTFTSPEEVEAYLKALPASWRVTRVELRSAGGSAGGSAGG [r17_410_JUSTAS]" classlabel=B
residuestring="SAGGSAGGPEIDLKEVRVFYPPGGERLVLVEVRDDVPLEQVRDWVLERGGEFYRELPNQILVRGSAGGSAGG [r6_543_TrMRF]" classlabel=A
residuestring="SAGGSAGGSAAPLEARLVSVSRDPAGNRLHAVYVVRDPSTGEQYLVTFSADPTSISVRVERVSAGGSAGGSA [r18_444_TrMRF]" classlabel=C
residuestring="SAGMKKKKIKKVEIEIKKGEKTIRVKLENGEEIEYKFKEEDLEEALKKIAEKLGLKKGDKIKIVEIEIESAG [r5_923_TrROS_Hall]" classlabel=B
residuestring="SAGGSAGGSAGGDNFEIEPDISWNPDYGYISIDWTVTIGGKEQPFTIMIPVRLPPPPEDDSAGGSAGGSAGG [r7_413_TrROS]" classlabel=B
residuestring="SGSPSTPVTITVEFPPRLTTVLYREPTRPPLGYLLVPEPSRTETITVPVSEVAAVKAELEPRGMTVTVTASA [r9_167_JUSTAS]" classlabel=A
residuestring="SAGGSAGGSAGGHPVRVRITWPDGQQRTIPIPVDPENGQVTLEEIAKTISPEHGWKIEVFSAGGSAGGSAGG [r7_492_TrROS]" classlabel=A
residuestring="SAGGLKDILKELGFPIKSVTVQPMPMPNGMPMRTVSITFENPNGPKFEIEVMVMPNGEVMIDIEWVKPSAGG [r13_818_TrROS]" classlabel=C
residuestring="SAGGKPPKIVVKVEKAPNPETGTYTYKVVLYDPVTGKAYVKPVKTKTPEELEKKAKEVAEELAKELASAGGS [r8_480_TrMRF]" classlabel=A
residuestring="SAGGNTIMIPMDPPQAREFAKNFIGEFLDQAEENPDRPIEIMVPGPEGRYITIRVDPKEGNLEIEVVPSAGG [r13_216_TrROS]" classlabel=A
residuestring="SAGGALILLFPHPESRTVTALFVHPDGGSETIPFPVPESIDSLEEVADRLLREARERFPVPVEVVVASAGGS [r8_166_TrMRF]" classlabel=B
residuestring="SAGGSAGGSAGVSFVVDALFVDPNTNEVYHGHIEFYDDGTAKITLTNQNGKTKTFTFPVLFSAGGSAGGSAG [r3_61_TrMRF]" classlabel=C

----------
Attribute: folding stability dG unfold
assay: folding stability dG unfold from trypsin proteolysis; higher = more stable
readoutType: folding stability dG unfold (kcal/mol)

residuestring="SAGMKIEVKRLPGPGDYLFTLVDPELAARLKAVYPGLEEVIFPVGGPDSVPEEEIKERAEKELKELLLSAGG [r19_298_JUSTAS]" observedvalue=-0.0847
residuestring="SAGGAVEKNSNNPNTSPEKAKEIAEEIAEELKKEGHVPKSISFSEKENGKLTATIKIEDGKELTIGLSAGGS [r8_485_JUSTAS]" observedvalue=-0.343
residuestring="SAGGIKIEIMFLMPLKDVRSIIDEIAKMPGIKITDVEVDIIPFENGTVMFRVTFEIEIYDPENGEPISAGGS [r8_374_TrROS]" observedvalue=3.95

----------
experiment: folding stability dG unfold (combined trypsin and chymotrypsin); higher = more stable
Decision: folding stability dG unfold >= 3 kcal/mol yields MET, all other cases yield NOT MET.

residuestring="SAGGSAGGSAGGVPEDVIMSPVSTTLVEKEVLSTEVTPEGAPKTVEKVLIVEKTLEPLLSAGGSAGGSAGGS [r10_758_JUSTAS]" classlabel="NOT MET"
residuestring="SAGGSAGAPLVLAEVELDPETGEVRIRVYDPVTGKVYEYTTPGSLADAIREIERETGIPITEVVVASAGGSA [r15_101_TrMRF]" classlabel=MET
residuestring="SAGWFISIKYKDPPTGRKRKISIPIPPGDPWLKELGFPSLDGLAKWLAPEMREEGHDVKDVKVEIMPPKSAG [r5_722_TrROS]" classlabel=MET
residuestring="SAGGEEVTIKLSDELRDLVPDAEIRVERLEDGTLRIEIRVRLPAPEPPEPVERREERRVEVRVEVRLESAGG [r13_129_TrROS_Hall]" classlabel="NOT MET"
residuestring="SGFKVYIPDADLDAAVAVAKALVEKGYDTLLVDSPEVLKAIKEAIPDVKVEPVPVLPPVPPLPGEAEALFSA [r9_639_TrMRF]" classlabel="NOT MET"

----------
Attribute: folding stability dG unfold
assay: folding stability dG unfold (combined trypsin and chymotrypsin); higher = more stable
readoutType: folding stability dG unfold (kcal/mol)

residuestring="SAGGSAGGSPDVVVPATLTFPLDAVAKAEFYPDGTVKVTFPDNTVALAKVEGGVVTDVRLAPASAGGSAGGS [r12_749_TrMRF]" scaleunit=kcal/mol observedvalue=0.11
residuestring="SAGMKAYNIKELKIEKIEKKGNKIKIKISGKGKFYFKTFSNGSAIIYIKKTNKAYYIDSNGKIVYIKDTSAG [r5_348_TrMRF]" scaleunit=kcal/mol observedvalue=1.76
residuestring="SAGGSAGGSAKKKILVKKPDGRLLLIEIDKDKPNTVRIYDIDTGKKIELSVEDLKKLKIKKSAGGSAGGSAG [r3_451_TrROS_Hall]" scaleunit=kcal/mol observedvalue=2.08

----------
test: folding stability dG unfold (combined trypsin and chymotrypsin); higher = more stable
Entries are sorted into classes by folding stability dG unfold as follows: LOW (below 1 kcal/mol), MID (1 kcal/mol to below 2 kcal/mol), HIGH (2 kcal/mol or more)

residuestring="SAGGSAGGSAGGGPEDRVVPLFFEFDLPEDVVLEVPSDADVFVFRLPDRTLMVLLVDERESAGGSAGGSAGG [r7_584_TrMRF]" classlabel=HIGH
residuestring="SAGGVRYRNPLTGVEIPPDATEEERAAIARAVAKPVVLPVTVPVYVEEGDVVVPVERTFHVPLGPDGSAGGS [r16_387_TrMRF]" classlabel=LOW
residuestring="SAGGSAGGSAGGSMELIPTPEDTVTVVETTPVAPTPNGTPVPATVTTTTLPKEEVEAAASAGGSAGGSAGGS [r4_238_JUSTAS]" classlabel=HIGH
residuestring="SAGGSPNYKINVEVEEYEPNPDNGKPYYRARIKIEWYNPENGREQTREIDFWMSPDKAEKFLKDILSAGGSA [r2_357_TrROS]" classlabel=HIGH
residuestring="SAGGSAGGSIEIPGGYTIPSSLSEEEAKEAAKKLFLEKNPELGVKEVEVKVETKNGKKTITVVKSAGGSAGG [r6_558_JUSTAS]" classlabel=LOW
residuestring="SAGGSMPLDVSSELLEESTDPSDPNRRTTLERRFSPDGTVTLVTRTFDPATGTTEVQETTLPPGLPSAGGSA [r2_73_JUSTAS]" classlabel=MID
residuestring="SAGGSAGGSGTSTKINILLPVKPGETVKLKVEVNLNSKKVLFYVDVKKNPVGNYLSATFTVTGSAGGSAGGS [r12_136_TrMRF]" classlabel=HIGH
residuestring="SAGGSAGGSAGMPEVEVEVKIIKFDKEKNVFVIEVTDKKTGKRVTLTIKNGKIELKVEEPSAGGSAGGSAGG [r17_370_TrROS_Hall]" classlabel=HIGH
residuestring="SAMKITEITYDKETNTITITVEIKLPPGVKKIKLKLFIDGAEIEEITMEVDEETGTVRITLKIRIPKDASAG [r14_244_TrROS_Hall]" classlabel=HIGH
residuestring="GHRIKVNTVHTPSGTFSLTATVRYPDGTTVTYSFNLPSSPNDTFSVSVPESVPLTTVTTSTFQGDTETPTSS [r1_70_JUSTAS]" classlabel=MID
residuestring="SAGGSAGGSAGGSGGSMEVSISEAPPEYLVVTVYDPATGKTTVRKVSPSEVKSLKYEGGSAGGSAGGSAGGS [r4_494_JUSTAS]" classlabel=LOW
residuestring="SAGGSAGGKGGKPKIKLEPINTNPNGWQTFRFEVTPEAIDDLMDDFPNVQVERHPGEMYITVRNSAGGSAGG [r6_395_TrROS]" classlabel=LOW
residuestring="SAGMYTITISRLPGGEYEVRVTDAANGEEVARRPVASEEEARAEAERIAAEIAEADPDVEVRVSESDAESAG [r5_383_JUSTAS]" classlabel=HIGH
